# Test system: Enterococcus sp.
# Test method notes: Antimicrobial activity against Enterococcus sp. J 14365/08 after 48 hrs by microdilution method
# Type: functional
# Protocol conditions: J 14365/08, 48 h
Overview of recorded MIC for various compounds
Measure name: MIC

| Line notation | Target or test system | Assay value |
| --- | --- | --- |
| CN(C)C(=S)Oc1ccc(Cl)cc1C(=O)Nc1ccc(Cl)cc1 | Enterococcus sp. | > 125 µM |
| CN(C)C(=O)Oc1ccc(Cl)cc1C(=O)Nc1ccc(F)cc1 | Enterococcus sp. | > 125 µM |
| CC1(C)S[C@@H]2[C@H](NC(=O)Cc3ccccc3)C(=O)N2[C@H]1C(=O)O | Enterococcus sp. | 15.6 µM |
| CN(C)C(=S)Oc1ccc(Cl)cc1C(=O)Nc1ccc(F)cc1 | Enterococcus sp. | > 500 µM |
| CN(C)C(=S)Oc1ccc(Cl)cc1C(=O)Nc1ccc(C(F)(F)F)cc1 | Enterococcus sp. | > 500 µM |
| CN(C)C(=O)Oc1ccc(Cl)cc1C(=O)Nc1ccc(Cl)cc1 | Enterococcus sp. | > 125 µM |
| CN(C)C(=S)Oc1ccc(Cl)cc1C(=O)Nc1ccc(Br)cc1 | Enterococcus sp. | > 500 µM |

----------
# System: Mycobacterium tuberculosis
# Test method notes: Antimycobacterial activity against Mycobacterium tuberculosis H37Rv 331/88 assessed as complete growth inhibition after 21 days
# Assay type: functional
# Protocol conditions: H37Rv 331/88, 504 h
Lab note - cut at 100 µM for MIC: true if strictly below, false if not.

| Compound | Assigned label |
| --- | --- |
| O=C(Nc1ccc(F)cc1)c1cc(Cl)ccc1OC(=O)N(c1ccccc1)c1ccccc1 | false |
| O=C(Nc1ccc(Cl)cc1)c1cc(Cl)ccc1OC(=O)N(c1ccccc1)c1ccccc1 | false |
| CN(C)C(=O)Oc1ccc(Cl)cc1C(=O)Nc1ccc(C(F)(F)F)cc1 | false |
| CN(C(=O)Oc1ccc(Cl)cc1C(=O)Nc1ccc(Br)cc1)c1ccccc1 | true |
| CN(C)C(=S)Oc1ccc(Cl)cc1C(=O)Nc1ccc(Br)cc1 | true |
| CN(C(=O)Oc1ccccc1C(=O)Nc1ccccc1)c1ccccc1 | false |
| O=C(Nc1ccc(Br)cc1)c1cc(Cl)ccc1OC(=O)N(c1ccccc1)c1ccccc1 | false |
| O=C(Nc1ccccc1)c1ccccc1O [SALICYLANILIDE] | false |
| CN(C)C(=S)Oc1ccccc1C(=O)Nc1ccccc1 | false |
| CN(C)C(=O)Oc1ccc(Cl)cc1C(=O)Nc1ccc(F)cc1 | true |
| CN(C)C(=S)Oc1ccc(Cl)cc1C(=O)Nc1ccc(F)cc1 | true |
| CN(C)C(=O)Oc1ccc(Cl)cc1C(=O)Nc1ccc(Cl)cc1 | true |
| O=C(Nc1ccc(F)cc1)c1cc(Cl)ccc1O | true |
| CN(C(=O)Oc1ccc(Cl)cc1C(=O)Nc1ccc(C(F)(F)F)cc1)c1ccccc1 | false |
| CN(C(=O)Oc1ccc(Cl)cc1C(=O)Nc1ccc(F)cc1)c1ccccc1 | true |
| CN(C)C(=S)Oc1ccc(Cl)cc1C(=O)Nc1ccc(Cl)cc1 | true |
| CN(C)C(=O)Oc1ccccc1C(=O)Nc1ccccc1 | false |

----------
# Test method notes: in vitro
# Protocol conditions: human, HepG2 cells
# Description: Selectivity index, ratio of IC50 for human HepG2 cells to MIC for Mycobacterium kansasii 6509/96

| Compound | selectivity ratio |
| --- | --- |
| NNC(=O)c1ccncc1 [ISONIAZID] | ≥ 31.3 |

----------
# Test method notes: Selectivity index, ratio of IC50 for human HepG2 cells to MIC for Mycobacterium tuberculosis H37Rv
# Type: toxicity, cell-based
# Protocol conditions: read-out: Selectivity Index
Overview of recorded selectivity ratio for various molecules
Measure name: selectivity ratio

| Line notation | Lt gt eq | Assay value |
| --- | --- | --- |
| O=C(Nc1ccc(Br)cc1)c1cc(Cl)ccc1O | = | 3.9 |
| CN(C)C(=O)Oc1ccc(Cl)cc1C(=O)Nc1ccc(Br)cc1 | = | 21.4 |
| O=C(O)CC[N+](=O)[O-] | < | 0.7 |
| O=C(Nc1ccc(F)cc1)c1cc(Cl)ccc1O | = | 3.3 |
| CN(C)C(=S)Oc1ccc(Cl)cc1C(=O)Nc1ccc(Br)cc1 | = | 10.7 |
| O=C(Nc1ccc(Cl)cc1)c1cc(Cl)ccc1O | = | 5.4 |
| CN(C)C(=O)Oc1ccc(Cl)cc1C(=O)Nc1ccc(Cl)cc1 | = | 11.8 |

----------
# System: Mycobacterium kansasii
# Test method notes: Antimycobacterial activity against clinical isolate Mycobacterium kansasii 6509/96 assessed as complete growth inhibition after 7 days
# Assay type: functional
# Protocol conditions: 6509/96, 168 h
Lab note - cut at 8 µM for MIC: met if strictly below, not met if not.

| Line notation | Assigned label |
| --- | --- |
| CN(C)C(=S)Oc1ccccc1C(=O)Nc1ccccc1 | not met |
| O=C(Nc1ccc(Cl)cc1)c1cc(Cl)ccc1O | met |
| O=C(Nc1ccc(Br)cc1)c1cc(Cl)ccc1OC(=O)N(c1ccccc1)c1ccccc1 | not met |
| CN(C)C(=S)Oc1ccc(Cl)cc1C(=O)Nc1ccc(Cl)cc1 | not met |
| CN(C(=O)Oc1ccc(Cl)cc1C(=O)Nc1ccc(C(F)(F)F)cc1)c1ccccc1 | not met |
| O=C(Nc1ccccc1)c1ccccc1OC(=O)N(c1ccccc1)c1ccccc1 | not met |
| CN(C)C(=O)Oc1ccccc1C(=O)Nc1ccccc1 | not met |
| O=C(O)CC[N+](=O)[O-] | not met |
| O=C(Nc1ccc(Br)cc1)c1cc(Cl)ccc1O | met |
| CN(C)C(=O)Oc1ccc(Cl)cc1C(=O)Nc1ccc(Br)cc1 | not met |

----------
Overview of recorded inhibition for various compounds
# Test method notes: Inhibition of Mycobacterium tuberculosis H37Rv isocitrate lyase assessed as glyoxylate phenyl hydrazone formation at 10 uM
Measure name: inhibition (%)

| Compound | Assay value |
| --- | --- |
| CN(C)C(=S)Oc1ccc(Cl)cc1C(=O)Nc1ccc(Br)cc1 | 11 |
| CN(C)C(=S)Oc1ccc(Cl)cc1C(=O)Nc1ccc(Cl)cc1 | 6 |
| O=C(Nc1ccc(F)cc1)c1cc(Cl)ccc1OC(=O)N(c1ccccc1)c1ccccc1 | 22 |
| CN(C)C(=O)Oc1ccc(Cl)cc1C(=O)Nc1ccc(C(F)(F)F)cc1 | 11 |
| NNC(=O)c1ccncc1 [ISONIAZID] | 0 |
| CN(C(=O)Oc1ccccc1C(=O)Nc1ccccc1)c1ccccc1 | 3 |
| CN(C)C(=S)Oc1ccccc1C(=O)Nc1ccccc1 | 6 |
| CN(C)C(=S)Oc1ccc(Cl)cc1C(=O)Nc1ccc(C(F)(F)F)cc1 | 12 |
| CN(C)C(=O)Oc1ccccc1C(=O)Nc1ccccc1 | 10 |
| CN(C)C(=O)Oc1ccc(Cl)cc1C(=O)Nc1ccc(F)cc1 | 8 |
